- ASSAY PROTOCOL: TNF-a-driven NF-kB reporter inhibitors, primary screen, selectivity assay for NOD1/NOD2 signaling inhibitor project, cell-based, HEK293T NF-kB-Luc, luminescence (AID 1852)
- MEASUREMENT CONTEXT: TNF-a induced, 14 h, at 4 µM
Hit rate of the full screen: of about 2,500 compounds, about 1,100 (44%) were called active.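 How the source made its calls: active means inhibition above 50% at 4 µM in the single-point screen; inactive means inhibition of 50% or less.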 So high a share suggests a set chosen from earlier hits. Some of the results follow.
The reply should be one of these categories: t for active, f for inactive

O=C(COc1ccc(C(=O)c2ccccc2)cc1)Nc1cccnc1 ... f
O=S(=O)(Nc1nc(-c2sccc2Cl)cs1)c1cc(Cl)ccc1Cl ... f
COc1ccc(NC(=O)CSc2ccc(-c3cccs3)nn2)c(OC)c1 ... t
O=C(c1[nH]ncc1-c1ccccc1)C1CO1 (stereo unspecified) ... f

Prompt line: State the result this test recorded for Cc1nc([N+](=O)[O-])c(Sc2nc3ccccc3[nH]2)n1Cc1ccccc1 .
Response line: f

====

- ASSAY PROTOCOL: TNF-a-driven NF-kB reporter inhibitors, primary screen, selectivity assay for NOD1/NOD2 signaling inhibitor project, cell-based, HEK293T NF-kB-Luc, luminescence (AID 1852)
- MEASUREMENT CONTEXT: TNF-a induced, 14 h, at 4 µM
In all, about 2,500 compounds went through this assay and about 1,100 (44%) were called active.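 Rule for the calls: active = inhibition above 50% at 4 µM in the single-point screen; inactive = inhibition of 50% or less.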 So high a share suggests a set chosen from earlier hits. The list shows a part of the results.
The reply should be one of these categories: label 1 (active), label 0 (inactive)

O=C(c1[nH]ncc1-c1ccc(Cl)cc1)C1CO1 (stereo unspecified) ... label 0
O=C(O)c1cccc(N/N=C/c2cccc3ccccc23)c1 ... label 1
O=C(CCCn1c(=S)[nH]c2cc3c(cc2c1=O)OCO3)N1CCN(c2ccc(Cl)cc2)CC1 ... label 0
Cc1cccc(N2CCN(C(=O)CCCCCn3c(=S)[nH]c4ccc(N5CCOCC5)cc4c3=O)CC2)c1C ... label 0
COc1cccc(NC(=O)CSc2nc3ccccc3c(=O)n2C)c1 ... label 0

Continue with the next compound.
Prompt line: State the result this test recorded for S=C(NCCc1ccccc1)Nc1cccc2cnccc12 .
Response line: label 1

====

- ASSAY PROTOCOL: TNF-a-driven NF-kB reporter inhibitors, primary screen, selectivity assay for NOD1/NOD2 signaling inhibitor project, cell-based, HEK293T NF-kB-Luc, luminescence (AID 1852)
- MEASUREMENT CONTEXT: TNF-a induced, 14 h, at 4 µM, stronger effect = higher value
Out of some 2,500 compounds screened, about 1,100 (44%) were called active. The set was probably picked from earlier hits. This is one part of the list.
The threshold is inclusive: inhibition of exactly 60% counts as satisfied; values below receive not satisfied.

Prompt line: Answer whether inhibition of Cc1ccc(C(=O)Nc2ccccc2C(=O)O)cc1S(=O)(=O)Nc1ccccc1 is greater than or equal to 60%.
Response line: satisfied

Prompt line: Answer whether inhibition of CC1=C/C(=N\OS(=O)(=O)c2ccccc2)C=CC1=O is greater than or equal to 60%.
Response line: not satisfied

====

- ASSAY PROTOCOL: TNF-a-driven NF-kB reporter inhibitors, primary screen, selectivity assay for NOD1/NOD2 signaling inhibitor project, cell-based, HEK293T NF-kB-Luc, luminescence (AID 1852)
- MEASUREMENT CONTEXT: TNF-a induced, 14 h, at 4 µM
Hit rate of the full screen: of about 2,500 compounds, about 1,100 (44%) were called active.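 The calls were made as follows: active = inhibition above 50% at 4 µM in the single-point screen; inactive = inhibition of 50% or less.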 The set was probably picked from earlier hits. This is one part of the list.
The reply should be one of these categories: active, inactive

# count of solved cases: 4
c1ccc(CN2CCN(c3ncnc4c3[nH]c3ccccc34)CC2)cc1 ... active
Cc1cc(C)c(C#N)c(SCc2nnc(-c3ccccc3)o2)n1 ... inactive
O=C(Nc1cccc(S(=O)(=O)N2CCCCC2)c1)c1ccccc1NS(=O)(=O)c1ccc(F)cc1 ... active
COc1cc(OC)c(N(C)S(=O)(=O)c2cccc(C(=O)OCC(=O)c3c[nH]c4ccccc34)c2)cc1Cl ... active

Prompt line: State the result this test recorded for COc1ccc(S(=O)(=O)n2ccc(C(C)Oc3ccc(-c4ccccc4)c(F)c3)n2)cc1 (configuration not stated) .
Response line: inactive

====

- ASSAY PROTOCOL: TNF-a-driven NF-kB reporter inhibitors, primary screen, selectivity assay for NOD1/NOD2 signaling inhibitor project, cell-based, HEK293T NF-kB-Luc, luminescence (AID 1852)
- MEASUREMENT CONTEXT: TNF-a induced, 14 h, at 4 µM, stronger effect = higher value
Hit rate of the full screen: of about 2,500 compounds, about 1,100 (44%) were called active. The set was probably picked from earlier hits. The list shows a part of the results.
PROPERTY: inhibition (%)
Value expressed in %; do not type the unit.

Examples with answers:
CN(C)Cc1c(C(=O)N/N=C/c2cccc(OCc3c(F)cccc3Cl)c2)nnn1-c1nonc1N ... 74
Oc1ccc(N=Nc2ccc3c(c2)OCCO3)c2cccnc12 ... 39.5
O=C(c1cc2nc(-c3ccc(F)cc3)cc(C(F)(F)F)n2n1)N1CCCCC1c1cccnc1 (stereo unspecified) ... 34.3
C=CC[n+]1ccc(/C=C2\C=Cc3cc(C)ccc3N2CC)c2ccccc21 ... 84.9
O=C(c1cn(-c2ccccc2)nc1-c1ccccc1)n1nnc2ccccc21 ... 27.6
CCn1c(SCC(=O)N2CCC(C)CC2)nc2c(c1=O)SCC2 ... 1.5
O=C(NCc1ccccc1)c1ccc(C2SCC(=O)N2Cc2ccccc2)cc1 (stereo unspecified) ... 33.1
CCN1C(=O)/C(=C/c2nc3ccccc3c(=O)n2-c2ccc(C)cc2)c2ccccc21 ... 23.6

Prompt line: Looking for the measured inhibition of COC(=O)Cc1[nH]n(-c2nc3ccccc3s2)c(=O)c1C(C)=Nc1ccc(OC)cc1 , can you help?
Response line: 30.8

Prompt line: Looking for the measured inhibition of O=C(NCc1ccccc1)c1sc(=S)n2c1[nH]c(=O)c1ccccc12 , can you help?
Response line: 73.6

Prompt line: Looking for the measured inhibition of Cc1ccc(C)c(N=Nc2ccc(O)c3ncccc23)c1 , can you help?
Response line: 42.5

Prompt line: Looking for the measured inhibition of Cc1ccc(Cl)cc1N1CCN(C(=O)CSc2nnc3n2C(C)(C)Cc2ccccc2-3)CC1 , can you help?
Response line: 95.1

Prompt line: Looking for the measured inhibition of C=CCn1c(Oc2ccc(C(=O)OC)cc2)nc2c1c(=O)n(C)c(=O)n2C , can you help?
Response line: 47.2

Prompt line: Looking for the measured inhibition of Cc1ccc(C)c(-n2[nH]c3c4c(ccc3c2=O)C(=O)c2ccccc2C4=O)c1 , can you help?
Response line: 58.4

Prompt line: Looking for the measured inhibition of N#C/C(=C\c1ccc(O)c([N+](=O)[O-])c1)c1nc2ccccc2s1 , can you help?
Response line: 76.9

====

- ASSAY PROTOCOL: TNF-a-driven NF-kB reporter inhibitors, primary screen, selectivity assay for NOD1/NOD2 signaling inhibitor project, cell-based, HEK293T NF-kB-Luc, luminescence (AID 1852)
- MEASUREMENT CONTEXT: TNF-a induced, 14 h, at 4 µM
Among all 2,500 compounds or so, about 1,100 (44%) were called active.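 How the source made its calls: active means inhibition above 50% at 4 µM in the single-point screen; inactive means inhibition of 50% or less.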 So high a share suggests a set chosen from earlier hits. Some of the results follow.
The reply should be one of these categories: active, inactive

O=[N+]([O-])c1ccc(Sc2nccn2Cc2ccccc2)c([N+](=O)[O-])c1 ... inactive

Continue with the next compound.
Prompt line: State the result this test recorded for CCN1/C(=C/c2ccc3cc(C)ccc3[n+]2CC)Sc2cc(C)c(C)cc21 .
Response line: active

====

- ASSAY PROTOCOL: TNF-a-driven NF-kB reporter inhibitors, primary screen, selectivity assay for NOD1/NOD2 signaling inhibitor project, cell-based, HEK293T NF-kB-Luc, luminescence (AID 1852)
- MEASUREMENT CONTEXT: TNF-a induced, 14 h, at 4 µM, stronger effect = higher value
Among all 2,500 compounds or so, about 1,100 (44%) were called active. The set was probably picked from earlier hits. Some of the results follow.
PROPERTY: inhibition (%)
Value expressed in %; do not type the unit.

Examples with answers:
CCN1C/C(=C/c2ccc(OC)c(O)c2)C(=O)/C(=C/c2ccc(OC)c(O)c2)C1 ... 101
C/C(=N\NC(=O)C(c1ccccc1)c1ccccc1)c1ccccn1 ... 103
CN(C)S(=O)(=O)c1cccc(NC(=O)c2ccc(COc3ccccc3)cc2)c1 ... 80.7
CCC(=O)NC(c1ccc(C)cc1)c1cc([N+](=O)[O-])c2cccnc2c1O (stereo not given) ... 84.6
CCOc1ccccc1NC(=O)CSc1nnc(Cc2cccn2C)n1-c1ccc(F)cc1 ... 56.8

Prompt line: Looking for the measured inhibition of COc1ccc(N(C(=O)CCl)C(C(=O)NCCc2ccccc2)c2cccs2)cc1 (stereo not given) , can you help?
Response line: 60.3

Prompt line: Looking for the measured inhibition of COc1cccc(N(C(=O)CCl)C(C(=O)NCCc2ccccc2)c2cccs2)c1 (stereo not given) , can you help?
Response line: 81.5

Prompt line: Looking for the measured inhibition of Cc1ccc(C)c(N2CCN(C(=O)CCS(=O)(=O)c3ccc4c(c3)NC(=O)C(C)S4)CC2)c1 (stereo not given) , can you help?
Response line: 74.4

Prompt line: Looking for the measured inhibition of COc1cc(/C=C2/C(=O)NN(c3ccc(Cl)cc3)C2=O)cc(OC)c1O , can you help?
Response line: 9.3

Prompt line: Looking for the measured inhibition of O=C1CCSc2ccc(Cl)cc2N1Cc1cccc(Cl)c1 , can you help?
Response line: 17.4

Prompt line: Looking for the measured inhibition of O=C(Nc1nnc(-c2ccccc2)o1)c1ccc(Cl)cc1 , can you help?
Response line: 104

Prompt line: Looking for the measured inhibition of CCNS(=O)(=O)c1ccc(NC(=O)Cn2cc([N+](=O)[O-])cn2)cc1 , can you help?
Response line: 25

Prompt line: Looking for the measured inhibition of COc1cc(NC(=O)COc2cc(O)c3c(c2)OC(C)(C)CC3=O)cc(OC)c1OC , can you help?
Response line: 64.6

Prompt line: Looking for the measured inhibition of C/C(=N\NC(=O)c1n[nH]c2c1CCC2)c1cccs1 , can you help?
Response line: 46.3

Prompt line: Looking for the measured inhibition of CCOC(=O)c1cc(C(=O)Nc2ccc(S(=O)(=O)Nc3ccc(OC)cc3)cc2)nn1C , can you help?
Response line: 18.6

Prompt line: Looking for the measured inhibition of COc1cc(/C=C2/C(=O)NN(c3cccc(Cl)c3)C2=O)cc(Br)c1O , can you help?
Response line: 0.8

Prompt line: Looking for the measured inhibition of CC[C@@]1(O)C(=O)OCc2c1cc1n(c2=O)Cc2cc3c(N)cccc3nc2-1 , can you help?
Response line: 88.3

Prompt line: Looking for the measured inhibition of C/C(=N\NC(=O)c1cc(-c2cccs2)nc2ccccc12)c1ccccn1 , can you help?
Response line: 106

Prompt line: Looking for the measured inhibition of COc1ccc(Cl)cc1NC(=O)CSc1nnc(Cc2cccn2C)n1-c1ccc(F)cc1 , can you help?
Response line: 35.1

Prompt line: Looking for the measured inhibition of CN(C)c1ccc(C(=O)Nc2nnc(-c3ccc(Cl)cc3)o2)cc1 , can you help?
Response line: 106

Prompt line: Looking for the measured inhibition of O=C(NCCc1ccccc1)C(c1cccs1)N(C(=O)CCl)c1ccc(Cl)cc1 (stereo not given) , can you help?
Response line: 24.6

Prompt line: Looking for the measured inhibition of CCN1C/C(=C/c2cccc([N+](=O)[O-])c2)C(=O)/C(=C/c2cccc([N+](=O)[O-])c2)C1 , can you help?
Response line: 106

Prompt line: Looking for the measured inhibition of C/C(=N\Nc1nc2ccccc2[nH]1)c1ccccn1 , can you help?
Response line: 101

Prompt line: Looking for the measured inhibition of C/C(=N\NC(=O)c1ccccc1Cl)c1ccccn1 , can you help?
Response line: 97.3
